# experimental_parameters: in n-butanol, 318.15 K
measured_quantity: solubility (mole fraction)
Number, no unit, nothing else.

GET /values?readout=solubility (mole fraction)&item= COc1ccc(Cl)cc1C(=O)NCCc1ccc(S(=O)(=O)NC(=O)NC2CCCCC2)cc1
0.000922

====

# experimental_parameters: in n-propanol, 318.15 K
measured_quantity: solubility (mole fraction)
Number, no unit, nothing else.

GET /values?readout=solubility (mole fraction)&item= COc1ccc(Cl)cc1C(=O)NCCc1ccc(S(=O)(=O)NC(=O)NC2CCCCC2)cc1
0.000729

====

# experimental_parameters: in ethanol, 293.15 K
measured_quantity: solubility (mole fraction)
Number, no unit, nothing else.

GET /values?readout=solubility (mole fraction)&item= COc1ccc(Cl)cc1C(=O)NCCc1ccc(S(=O)(=O)NC(=O)NC2CCCCC2)cc1
0.000188
